# Read-out: C-C motif chemokine 2 (Homo sapiens)
# ASSAY_NOTES: BSK_KF3CT_MCP1: BioMAP Diversity Plus: KF3CT Assay for Monocyte Chemoattractant Protein 1 (MCP1/CCL2) Biomarker Activity (AID 2283073)
# MEASUREMENT_SETUP: primary human keratinocytes with fibroblasts; actives raise or lower the signal
# Procedure: BSK_KF3CT is a cell-based, multiplexed-readout assay that uses keratinocytes and foreskin fibroblasts, a human skin primary cell co-culture, with measurements taken at 24 hours after chemical dosing in a 96-well plate.BSK_KF3CT_MCP1 is an assay component measured in the BSK_KF3CT assay. It measures MCP-1 antibody related to regulation of gene expression using ELISA technology.Data from the assay component BSK_KF3CT_MCP1 was analyzed into 1 assay endpoint. […]
Activity calls are given as the source filed them. Rule for the calls: active = hit-call score of the fitted dose curve at least 0.9, where 1 is the maximum; inactive = score below 0.9.
Could you please pick one outcome from this set? yes for active, no for inactive

Worked examples follow.
INSERT INTO assay_data (compound, label_class) VALUES
  ('Clc1ccc(Cl)cc1', 'no'),
  ('Clc1ccc(C(c2ccccc2Cl)C(Cl)(Cl)Cl)cc1 (centres undefined)', 'yes'),
  ('CCC(=O)O[C@H]1CC[C@H]2[C@@H]3CCC4=CC(=O)CC[C@]4(C)[C@H]3CC[C@]12C', 'no'),
  ('O=C(O)C(F)(F)C(F)(F)C(F)(F)C(F)(F)C(F)(F)F', 'no'),
  ('CCCCCCCCOC(=O)c1ccccc1C(=O)OCCCCCCCC', 'no'),
  ('O=C(N[C@H]1CN2CCC1CC2)c1cc2ccoc2cn1', 'no');

Asked: Which outcome was assigned to `Cc1ccccc1CO[C@@H]1C[C@@]2(C(C)C)CC[C@]1(C)O2` in this test?
Given back: no

Asked: Which outcome was assigned to `C=CC(=O)NCNC(=O)C=C` in this test?
Given back: no

Asked: Which outcome was assigned to `ClC(Cl)=C(c1ccc(Cl)cc1)c1ccc(Cl)cc1` in this test?
Given back: yes

Asked: Which outcome was assigned to `O=S(=O)(O)C(F)(F)C(F)(F)C(F)(F)C(F)(F)C(F)(F)C(F)(F)F` in this test?
Given back: no

Asked: Which outcome was assigned to `CC#Cc1cc(C)nc(Nc2ccccc2)n1` in this test?
Given back: no

Asked: Which outcome was assigned to `CC(C)(O)C(=O)Nc1ccc([N+](=O)[O-])c(C(F)(F)F)c1` in this test?
Given back: no

Asked: Which outcome was assigned to `CCC(C)(CC)c1cc(NC(=O)c2c(OC)cccc2OC)on1` in this test?
Given back: no

Asked: Which outcome was assigned to `CC(C)(c1ccccc1)c1ccc(O)cc1` in this test?
Given back: yes

---

# Read-out: Glutathione S-Transferase (GSTA2), GSTA2 (gene 2939)
# ASSAY_NOTES: LTEA_HepaRG_GSTA2: Life Technologies and Expression Analysis (LTEA) Assay for Glutathione S-Transferase (GSTA2) using HepaRG (AID 2283497)
# MEASUREMENT_SETUP: mRNA level, 48 h; actives raise or lower the signal
Active and inactive are the calls of the source. The calls were made as follows: active = hit-call score of the fitted dose curve at least 0.9, where 1 is the maximum; inactive = score below 0.9.
Could you please pick one outcome from this set? Y for active, N for inactive

Worked examples follow.
INSERT INTO assay_data (compound, label_class) VALUES
  ('c1ccc(-c2ccccc2)cc1', 'N'),
  ('Cc1ccccc1O', 'N');

Asked: Which outcome was assigned to `C[C@]12CCC(=O)C=C1CC[C@@H]1[C@@H]2CC[C@@]2(C)[C@H]1CC[C@]2(C)O` in this test?
Given back: N

Asked: Which outcome was assigned to `O=C(O)C(F)(F)C(F)(F)C(F)(F)C(F)(F)C(F)(F)C(F)(F)C(F)(F)C(F)(F)C(F)(F)F` in this test?
Given back: Y

Asked: Which outcome was assigned to `CC(C)(c1ccccc1)c1ccc(O)cc1` in this test?
Given back: Y

---

# Read-out: Matrix Metallopeptidase 1 (MMP1), MMP1 (gene 4312)
# ASSAY_NOTES: BSK_hDFCGF_MMP1: BioMAP Diversity Plus: hDFCGF Assay for Matrix Metallopeptidase 1 (MMP1) Biomarker Activity (AID 2283064)
# MEASUREMENT_SETUP: primary human foreskin fibroblasts; actives raise or lower the signal
Active and inactive are the calls of the source. How the source made its calls: active means hit-call score of the fitted dose curve at least 0.9, where 1 is the maximum; inactive means score below 0.9.
Could you please pick one outcome from this set? y for active, n for inactive

Worked examples follow.
INSERT INTO results (compound, label_class) VALUES
  ('c1cc2ccc3cccc4ccc(c1)c2c34', 'n'),
  ('CCC(=O)O[C@H]1CC[C@H]2[C@@H]3CCC4=CC(=O)CC[C@]4(C)[C@H]3CC[C@]12C', 'y'),
  ('C=CC(=O)NCNC(=O)C=C', 'n');

Asked: Which outcome was assigned to `Cc1ccccc1[N+](=O)[O-]` in this test?
Given back: n

Asked: Which outcome was assigned to `C[C@]12CCC(=O)C=C1CC[C@@H]1[C@@H]2CC[C@]2(C)C(=O)CC[C@@H]12` in this test?
Given back: n

Asked: Which outcome was assigned to `ClC(Cl)=C(c1ccc(Cl)cc1)c1ccc(Cl)cc1` in this test?
Given back: y

Asked: Which outcome was assigned to `CCOP(=S)(OCC)SCSC(C)(C)C` in this test?
Given back: n

Asked: Which outcome was assigned to `CCC(C)(c1ccc(O)cc1)c1ccc(O)cc1` in this test?
Given back: n

Asked: Which outcome was assigned to `CCOCCOC(C)=O` in this test?
Given back: n

Asked: Which outcome was assigned to `Nc1ccc(-c2ccc(N)cc2)cc1` in this test?
Given back: n

Asked: Which outcome was assigned to `O=C(NC(=O)c1cc(F)c(F)cc1Cl)Nc1cc(F)ccc1N1CCC(C(=O)O)CC1` in this test?
Given back: n

---

# ASSAY_NOTES: Tanguay_ZF_120hpf_ActivityScore_legacy: (Legacy) Oregon State University Tanguay Lab 120 Hour Post-fertilization zebrafish Assay Score for Activity (AID 2283742)
Calls of active or inactive are those of the source. Rule for the calls: active = hit-call score of the fitted dose curve at least 0.9, where 1 is the maximum; inconclusive = response in the unintended direction; inactive = score below 0.9.
Could you please pick one outcome from this set? active, inactive

Worked examples follow.
INSERT INTO measurements (compound, label_class) VALUES
  ('CCC(=O)O[C@H]1CC[C@H]2[C@@H]3CCC4=CC(=O)CC[C@]4(C)[C@H]3CC[C@]12C', 'inactive'),
  ('O=C(O)C(F)(F)C(F)(F)C(F)(F)C(F)(F)C(F)(F)C(F)(F)C(F)(F)C(F)(F)F', 'inactive'),
  ('c1ccc(-c2ccccc2)cc1', 'inactive'),
  ('CC(C)(c1ccccc1)c1ccc(O)cc1', 'active'),
  ('Cc1cc2c3c(c1)C(c1ccccc1)=N[C@@H](NC(=O)c1ccncc1)C(=O)N3CC2', 'inactive'),
  ('Nc1ccc(-c2ccc(N)cc2)cc1', 'inactive');

Asked: Which outcome was assigned to `N#Cc1ccc(N(CC(N)=O)CC(F)(F)F)cc1C(F)(F)F` in this test?
Given back: inactive

Asked: Which outcome was assigned to `Cc1ccccc1O` in this test?
Given back: inactive

Asked: Which outcome was assigned to `c1cc2ccc3cccc4ccc(c1)c2c34` in this test?
Given back: inactive

---

# ASSAY_NOTES: ACEA_AR_agonist_AUC_viability: ACEA Biosciences xCELLigence Real-Time Cell Analysis on Androgen Receptor Agonism for Viability (AID 2283775);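 for AC50: viability read 80 hours after compound addition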
Inconclusive results are not listed. The source made the active and inactive calls. Rule for the calls: active = hit-call score of the fitted dose curve at least 0.9, where 1 is the maximum; inconclusive = response in the unintended direction; inactive = score below 0.9.
METRIC: AC50

The following compounds have reported results that may help.
INSERT INTO assay_data (compound, metric, result) VALUES
  ('Clc1ccc(C(Cl)(Cl)Cl)cc1', 'AC50', 'inactive'),
  ('O=C(NC(=O)c1cc(F)c(F)cc1Cl)Nc1cc(F)ccc1N1CCC(C(=O)O)CC1', 'AC50', 'inactive'),
  ('Cc1ccccc1O', 'AC50', 'inactive'),
  ('O=S(=O)(O)C(F)(F)C(F)(F)C(F)(F)C(F)(F)F', 'AC50', 'inactive'),
  ('Cc1ccccc1CO[C@@H]1C[C@@]2(C(C)C)CC[C@]1(C)O2', 'AC50', '76.7 µM (active)');

Given item `CCOC(=O)C(O)(c1ccc(Cl)cc1)c1ccc(Cl)cc1` , the value recorded as its AC50 is 79.6 µM (active)

Given item Clc1ccc(C(c2ccccc2Cl)C(Cl)(Cl)Cl)cc1 (stereo not drawn) , the value recorded as its AC50 is 8.75 µM (active)

Given item `CCC(C)(CC)c1cc(NC(=O)c2c(OC)cccc2OC)on1` , the value recorded as its AC50 is inactive

---

# Read-out: CD38, CD38 (gene 952)
# ASSAY_NOTES: BSK_SAg_CD38: BioMAP Diversity Plus: SAg Assay for CD38 Biomarker Activity (AID 2283087)
# MEASUREMENT_SETUP: primary human HUVEC with PBMC; actives raise or lower the signal
Activity calls are given as the source filed them. The calls were made as follows: active = hit-call score of the fitted dose curve at least 0.9, where 1 is the maximum; inactive = score below 0.9.
Could you please pick one outcome from this set? 1 (yes) (active), 0 (no) (inactive)

INSERT INTO measurements (compound, label_class) VALUES
  ('CCC(C)(CC)c1cc(NC(=O)c2c(OC)cccc2OC)on1', '0 (no)'),
  ('C1CC2OC2CC1C1CO1 (configuration not stated)', '0 (no)'),
  ('Cc1cccc(C)c1N', '0 (no)'),
  ('ClC1=C(Cl)[C@]2(Cl)[C@@H]3[C@@H]4C[C@@H]([C@H]5O[C@@H]45)[C@@H]3[C@@]1(Cl)C2(Cl)Cl', '1 (yes)'),
  ('CCCCCCCCCC[N+](C)(C)CCCCCCCCCC', '1 (yes)'),
  ('Cc1cc(O)ccc1Cl', '0 (no)');

Asked: Which outcome was assigned to `CCSC(=O)N(CC)C1CCCCC1` in this test?
Given back: 0 (no)

Asked: Which outcome was assigned to `C[C@]12CCC(=O)C=C1CC[C@@H]1[C@@H]2CC[C@@]2(C)[C@H]1CC[C@]2(C)O` in this test?
Given back: 0 (no)

Asked: Which outcome was assigned to `O=S(=O)(O)C(F)(F)C(F)(F)C(F)(F)C(F)(F)C(F)(F)C(F)(F)F` in this test?
Given back: 0 (no)

Asked: Which outcome was assigned to `CC#Cc1cc(C)nc(Nc2ccccc2)n1` in this test?
Given back: 0 (no)

Asked: Which outcome was assigned to `ClC1=C(Cl)[C@]2(Cl)[C@@H]3[C@@H](Cl)[C@H]4O[C@H]4[C@@H]3C1(Cl)C2(Cl)Cl` in this test?
Given back: 1 (yes)

Asked: Which outcome was assigned to `COS(=O)(=O)OC` in this test?
Given back: 0 (no)
